Target: Aurora kinase A (Homo sapiens)
Sequence (O14965 whole entry): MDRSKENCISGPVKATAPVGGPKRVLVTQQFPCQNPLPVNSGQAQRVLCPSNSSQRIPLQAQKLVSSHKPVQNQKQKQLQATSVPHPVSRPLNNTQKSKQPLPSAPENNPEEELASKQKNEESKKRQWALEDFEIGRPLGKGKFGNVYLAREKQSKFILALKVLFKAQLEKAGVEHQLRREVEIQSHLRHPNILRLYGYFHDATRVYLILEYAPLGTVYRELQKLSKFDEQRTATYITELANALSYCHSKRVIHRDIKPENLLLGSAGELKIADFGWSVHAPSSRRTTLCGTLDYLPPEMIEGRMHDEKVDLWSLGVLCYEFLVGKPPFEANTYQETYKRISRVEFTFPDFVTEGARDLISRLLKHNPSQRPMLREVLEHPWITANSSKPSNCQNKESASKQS
Compiled from multiple publications: Ki readings for Aurora kinase A (Homo sapiens).
// units = nM; emit number, no label

Incoming: Entry under review: CN(Cc1ccc2[nH]cnc2c1Cl)c1nccc(Nc2cc(C3CC3)[nH]n2)n1 . Reported Ki?
Outgoing: 3

Incoming: Entry under review: Cc1cc(Nc2cc(C)c(C#N)c(NCCCCCC(C)(C)O)n2)n[nH]1 . Reported Ki?
Outgoing: 2.3

Incoming: Entry under review: Cc1cc(Nc2nc(-c3ccccc3)nc3ccccc23)n[nH]1 . Reported Ki?
Outgoing: 58

Incoming: Entry under review: CCC(=O)Nc1ccc(Sc2nc(Nc3cc(C)[nH]n3)cc(C(C)(C)C)n2)cc1 . Reported Ki?
Outgoing: 10

Incoming: Entry under review: Cc1cnc(Nc2cccc3c2CCCC3)nc1-c1c[nH]c(C(=O)N[C@H](CO)c2cccc(Cl)c2)c1 . Reported Ki?
Outgoing: 280

Incoming: Entry under review: CN(C)CC[C@@H](c1ccccc1)n1cc(NC(=O)c2n[nH]c3cc(-c4cn[nH]c4)ccc23)cn1 . Reported Ki?
Outgoing: 15

Incoming: Entry under review: Cc1cnc(Nc2ccccc2)nc1-c1c[nH]c(C(=O)N[C@H](CO)c2ccccc2)c1 . Reported Ki?
Outgoing: 15

Incoming: Entry under review: CC1(C)CCc2c(C(=O)Nc3cnn(Cc4ccccc4)c3)n[nH]c2C1 . Reported Ki?
Outgoing: 480

Incoming: Entry under review: CCC(=O)Nc1ccc(Sc2nc(C)cc(Nc3cc(C)n[nH]3)n2)cc1 . Reported Ki?
Outgoing: 5.1

* * *

Compiled from multiple publications: log10 Ki readings for Aurora kinase A (Homo sapiens, UniProt O14965).
A value of 2 here means Ki of 100 in µM, since values are log10.

Incoming: Which measured log10 Ki belongs to Cc1cc(Nc2cc(C)c(C#N)c(NCCO)n2)[nH]n1 , tested on Aurora kinase A (Homo sapiens, UniProt O14965)?
Outgoing: -1.70

Incoming: Which measured log10 Ki belongs to CCC(=O)Nc1ccc(Sc2nc(Nc3cc(C)n[nH]3)cc(N3CCCCC3)n2)cc1 , tested on Aurora kinase A (Homo sapiens, UniProt O14965)?
Outgoing: -2.80

Incoming: Which measured log10 Ki belongs to Cn1cc(-c2ccncc2)cc(N)c1=O , tested on Aurora kinase A (Homo sapiens, UniProt O14965)?
Outgoing: 2.00

Incoming: Which measured log10 Ki belongs to Cc1cc(Nc2cc(C)c(C#N)c(N[C@H](C)CCCC(C)(C)O)n2)n[nH]1 , tested on Aurora kinase A (Homo sapiens, UniProt O14965)?
Outgoing: -1.18

Incoming: Which measured log10 Ki belongs to COc1ccccc1Nc1nc(N)n(-c2cc(NCCN(C)C)ncn2)n1 , tested on Aurora kinase A (Homo sapiens, UniProt O14965)?
Outgoing: 0.32

Incoming: Which measured log10 Ki belongs to CC(=O)Nc1ccc(Sc2nccc(Nc3cc(C)[nH]n3)n2)cc1 , tested on Aurora kinase A (Homo sapiens, UniProt O14965)?
Outgoing: -1.07
